recorded_metric: melting point

// worked examples, melting point included
Please fill in: melting point reported for Cc1ccc2c(c1)nnn2C1(c2ccccc2)OC(=O)c2cccc([N+](=O)[O-])c21 (centres undefined) = 240 to 248 °C

So, CSc1cc(C(C)=O)ccc1OCCCBr ? Its melting point was 120 to 122 °C

The reported value for Cc1ccc(N(c2ccc(C)cc2)c2ccc(C=C3c4ccccc4C=Cc4ccccc43)cc2)cc1 in terms of melting point is 168 to 169 °C

Summary for this compound, CCOC(=O)c1c(-c2cccc(Cl)c2)c2cc(C(=O)c3nc(-c4ccccc4)cs3)ccc2[nH]c1=O : melting point is 261 °C

For record Cc1cccc(NC(=O)Nc2cccc3c2C2CC(=O)CCN2C3=O)n1 (centres undefined) the listed melting point is 226 to 228 °C

// melting point value for O=c1n(-c2cccc(Cl)c2)c(=O)n(SC(Cl)(Cl)Cl)n1SC(Cl)(Cl)Cl : 153 °C

Continuing:
Entry under test: COc1cc([N+](=O)[O-])c(NC(C)=O)cc1Cl . Its melting point was 152 to 153 °C

Looking up CC(=O)NC1COc2c(C)ccc(N)c2C1=O (centres undefined) , I found its melting point recorded as 178 to 180 °C

Sample CC1(C)CN=C(c2cc3cccc(NS(=O)(=O)c4cccs4)c3[nH]2)S1 ; melting point observed: 176 to 177 °C
